Origin of values: ChEMBL document CHEMBL1949554

target: Procathepsin L (Homo sapiens, UniProt P07711); assay: Inhibition of human cathepsin L using Cbz-Phe-Arg-AMC as substrate by spectrofluorometer analysis; conditions: read-out: Ki
Sequence (P07711 whole entry): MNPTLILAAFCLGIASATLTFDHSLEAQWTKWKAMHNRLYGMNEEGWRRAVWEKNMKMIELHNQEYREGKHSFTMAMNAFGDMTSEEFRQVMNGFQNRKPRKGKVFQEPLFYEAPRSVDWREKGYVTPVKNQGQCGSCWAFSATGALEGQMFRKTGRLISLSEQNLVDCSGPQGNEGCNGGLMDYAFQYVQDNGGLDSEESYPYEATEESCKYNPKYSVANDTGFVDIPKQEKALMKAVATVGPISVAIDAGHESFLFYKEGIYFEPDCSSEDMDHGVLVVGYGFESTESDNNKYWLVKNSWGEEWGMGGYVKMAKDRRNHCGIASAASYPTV
Could you please report measured Ki for the items listed next?

Quick batch: Ki for everything below.
1. CC(=O)/C=C/CNC(=O)CN1C(=O)[C@@H](CN2CCCCC2)N=C(c2ccccc2)c2ccccc21
2. CC(=O)/C=C/CNC(=O)CN1C(=O)[C@@H](CNCC(C)C)N=C(c2ccccc2)c2ccccc21
3. CC(=O)/C=C/CNC(=O)CN1C(=O)[C@@H](COC(=O)Nc2ccc(Cl)cc2C(F)(F)F)N=C(C)c2ccccc21

Key:
["> 100 µM", "> 140 µM", "82 µM"]

----------
target: Procathepsin L (Homo sapiens, UniProt P07711); assay: Inhibition of human cathepsin L using Cbz-Phe-Arg-AMC as substrate by spectrofluorometer analysis; conditions: read-out: Ki(app)
Endpoint Name: Ki (µM)
Numbers only, in µM.

Exercise: Can you look up the measured Ki of CC(=O)/C=C/CNC(=O)CN1C(=O)[C@@H](COC(=O)Nc2ccc(Cl)cc2C(F)(F)F)N=C(c2ccccc2)c2ccccc21 for me?
Key: 8.6
